# ASSAY_SUMMARY: Test B: Cytotoxicity Assay
# Format: cell-based
# EXPERIMENTAL_SETUP: human, uninfected MT-4 cells, same protocol as Test A
Mark 1 (yes) only when CC50 at 5 days stays strictly below 20 µM. Values equal to the cut-off are 0 (no).

Worked cases, answers included:
{"columns": ["MOLECULE", "CATEGORY_LABEL"],
 "data": [
  ["Cn1nc(N)c2cccc(-c3ccc(C#CC(C)(C)O)nc3[C@H](Cc3cc(F)cc(F)c3)NC(=O)Cn3nc(C(F)(F)F)c4c3C(F)(F)[C@@H]3C[C@H]43)c21 [Compound 25]", "1 (yes)"],
  ["COCC(=O)Nc1nn(C)c2c(-c3ccc(C#CC(C)(C)O)nc3[C@H](Cc3cc(F)cc(F)c3)NC(=O)Cn3nc(C(F)F)c4c3C(F)(F)[C@@H]3C[C@H]43)ccc(Cl)c12 [Compound 84]", "1 (yes)"],
  ["Cn1cc(S(=O)(=O)Nc2nn(C)c3c(-c4ccc(C#CC(C)(C)O)nc4[C@H](Cc4cc(F)cc(F)c4)NC(=O)Cn4nc(C(F)(F)F)c5c4C(F)(F)[C@@H]4C[C@H]54)cccc23)cn1 [Compound 48]", "0 (no)"],
  ["COc1ccc2[nH]cc(CC(=O)N[C@@H](Cc3cc(F)cc(F)c3)c3nc(C#CC(C)(C)O)ccc3-c3ccc(Cl)c4c(NS(C)(=O)=O)nn(C)c34)c2n1 [Compound 194]", "0 (no)"],
  ["Cc1ccc(-c2ccc(C#CC(C)(C)C)nc2[C@H](Cc2cc(F)cc(F)c2)NC(=O)Cn2nc(C(F)F)c3c2C(F)(F)[C@@H]2C[C@H]32)c2nnc(NS(C)(=O)=O)n12 [Compound 133]", "1 (yes)"],
  ["Cn1nc(NS(N)(=O)=O)c2c(Cl)ccc(-c3ccc(C#CC(C)(C)O)nc3[C@H](Cc3cc(F)cc(F)c3)NC(=O)Cn3nc(C(F)F)c4c3C(F)(F)[C@@H]3C[C@H]43)c21 [Compound 70]", "1 (yes)"]
]}

Does the reported CC50 at 5 days of Cn1nc(NS(C)(=O)=O)c2cccc(-c3ccc(C#CC(C)(C)O)nc3[C@H](Cc3cc(F)cc(F)c3)NC(=O)Cn3nc(C(F)F)c4c3C(F)(F)CCC4(F)F)c21 [Compound 42] stay below 20 µM?
1 (yes)

Another molecule to look at: COc1ccc(-c2ccc(C#CC(C)(C)C)nc2[C@H](Cc2cc(F)cc(F)c2)NC(=O)Cn2nc(C(F)F)c3c2C(F)(F)[C@@H]2C[C@H]32)c2nnc(NS(C)(=O)=O)n12 [Compound 130]
0 (no)

----------
# ASSAY_SUMMARY: Test B: Cytotoxicity Assay
# Format: cell-based
# EXPERIMENTAL_SETUP: human, uninfected MT-4 cells, same protocol as Test A
READOUT: CC50 at 5 days (µM)
Kindly answer with a numeric value in µM, unit omitted.

What value of CC50 at 5 days has been recorded for this entry: Cn1nc(NS(N)(=O)=O)c2c(Cl)ccc(-c3ccc(C#CC(C)(C)O)nc3[C@H](Cc3cc(F)cc(F)c3)NC(=O)Cn3nc(C(F)(F)F)c4c3C(F)(F)[C@@H]3C[C@H]43)c21 [Compound 119C]
9.24

Another molecule to look at: Cn1ncc2c(Cl)ccc(-c3ccc(C#CC(C)(C)O)nc3[C@H](Cc3cc(F)cc(F)c3)NC(=O)Cn3nc(C(F)F)c4c3C(F)(F)[C@@H]3C[C@H]43)c21 [Compound 137C]
7.88

Another molecule to look at: Cn1nc(NS(N)(=O)=O)c2c(Cl)ccc(-c3ccc(C#CC(C)(C)O)nc3[C@H](Cc3cc(F)cc(F)c3)NC(=O)Cn3nc(C(F)F)c4c3C(F)(F)CCC4(F)F)c21
9.07

Another molecule to look at: CC(=O)Nc1nn(CC(=O)N[C@@H](Cc2cc(F)cc(F)c2)c2nc(C#CC(C)(C)O)ccc2-c2ccc(Cl)c3c(NS(C)(=O)=O)nn(C)c23)c2c1[C@H]1C[C@H]1C2(F)F
8.85
